Catalogue of Ki values
Biological target: Gag-Pol polyprotein [484-582,Q491K,I494L,I497V,V499I,E519D,I534V,R541K,D544E,Q553K,A555V,L573M] (Human immunodeficiency virus, UniProt Q9QBY3, A555V/D544E/E519D/I494L/I497V/I534V/L573M/Q491K/Q553K/R541K/V499I)
Construct: 484-582
Test: HIV-1 protease inhibition assay
Conditions: pH 4.7; 25 °C
Procedure: The reaction mixture contained 2 µL of protease and 2 µL of inhibitor (or DMSO as a control) and was incubated for 20-30 min at room temperature prior to the substrate cleavage reaction. 150 µL of a 1 µM substrate were used in substrate buffer (0.1 M sodium acetate, 1 M sodium chloride, 1 mM EDTA, 1 MM DTT, 2% DMSO, and 1 mg/mL BSA with an adjusted pH of 4.7).
Numeric only. Scale: nM

Answered examples (5):
CCC(CC)CN(C[C@@H](O)[C@H](Cc1ccccc1)NC(=O)O[C@H]1CO[C@H]2OCC[C@H]21)S(=O)(=O)c1ccc(CO)cc1 | 0.026
CCC(CC)CN(C[C@@H](O)[C@H](Cc1ccccc1)NC(=O)O[C@H]1CO[C@H]2OCC[C@H]21)S(=O)(=O)c1ccc(N)cc1 | 0.062
CCC(CC)CN(C[C@@H](O)[C@H](Cc1ccccc1)NC(=O)O[C@H]1CO[C@H]2OCC[C@H]21)S(=O)(=O)c1ccc2ncsc2c1 | 0.108
CCC(CC)CN(C[C@@H](O)[C@H](Cc1ccccc1)NC(=O)O[C@H]1CO[C@H]2OCC[C@H]21)S(=O)(=O)c1ccc2c(c1)OCO2 | 0.006
CC[C@H](C)CN(C[C@@H](O)[C@H](Cc1ccccc1)NC(=O)O[C@H]1CO[C@H]2OCC[C@H]21)S(=O)(=O)c1ccc2ncsc2c1 | 0.025

Exercise: Which Ki value belongs to CC[C@H](C)CN(C[C@@H](O)[C@H](Cc1ccccc1)NC(=O)O[C@H]1CO[C@H]2OCC[C@H]21)S(=O)(=O)c1ccc(CO)cc1 ?
Key: 0.013

Exercise: Which Ki value belongs to CC[C@H](C)CN(C[C@@H](O)[C@H](Cc1ccccc1)NC(=O)O[C@H]1CO[C@H]2OCC[C@H]21)S(=O)(=O)c1ccc(OC)cc1 ?
Key: 0.103
